B1: SLC35F2 (parent)
chain: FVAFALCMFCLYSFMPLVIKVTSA

variants of: B1; experiment: protein stability index of a GFP-peptide fusion (GPS, HEK-293T) (PSI 1-6); higher = more stable; conditions: c terminus: a fixed tail appended;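 also: lentivirally expressed fusions sorted by FACS into six bins by GFP to DsRed ratio, PSI derived from sequencing read proportions per bin multiplied by bin number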
Everything with protein stability index lower than 3 is -1; everything else, including exactly 3, is 1.

Consider the following illustrative entries.
Prompt: Could you verify whether the entry "F14S" shows protein stability index of no less than 3?
Completion: 1

Prompt: Test whether the variant "K20R" records protein stability index of 3 or higher.
Completion: 1

Prompt: API: above_or_equal(metric=protein stability index, cutoff=3) for item "P16M"
Completion: -1

Prompt: Hi team, for "A3S" , is the recorded protein stability index at or above 3?
Completion: -1

Prompt: Tell me whether protein stability index is at least 3 here: "I19T"
Completion: 1

Others:
Prompt: Decide: protein stability index of "K20G" >= 3?
Completion: -1
